System: Zika virus NS2B-NS3 protease (unlinked)
Experiment: Optimization of GU AMC qHTS for Zika virus inhibitors: Unlinked NS2B-NS3 protease assay (AID 1347151); further: nearly all actives have a fitted effect of over 80% in size
Conditions: recombinant ZIKV NS2B-NS3 protease, fluorogenic AMC substrate; series mostly up to 52.5 µM
Results filed as inconclusive are left out. Active and inactive are the calls of the source. The call rests on the fitted dose curve; in most records, active means well fitted inhibition curve with a large enough effect; inconclusive means small, poorly fitted or top-dose-only effect; inactive means no such curve, though single readings can be large or run the other way.
Entry note: the call must match one of t for active, f for inactive

Which outcome did this test record for the compound `N[C@H](CO)C(=O)O` ? f

Which outcome did this test record for the compound `COc1cc(NS(C)(=O)=O)ccc1Nc1c2ccccc2nc2ccccc12` ? t

Which outcome did this test record for the compound CC(CCc1ccccc1)NCC(O)c1ccc(O)c(C(N)=O)c1 (stereo unspecified) ? t
